System: Pseudomonas aeruginosa
Assay Summary: Inhibition of LptD in Pseudomonas aeruginosa ATCC 27853 assessed as microbial growth inhibition by microbroth dilution method
Measure: MIC (µg/mL)
Give just the number in µg/mL; leave the unit off.

Qu. Please look at this compound and report its MIC: CC(C)C[C@@H]1NC(=O)[C@H](Cc2c[nH]c3ccccc23)NC(=O)[C@H]([C@@H](C)O)NC(=O)[C@@H]2CCCN2C(=O)[C@H]2CCCN2C(=O)[C@H](CCCCN)NC(=O)[C@H](C)NC(=O)[C@H](CCN)NC(=O)[C@H](CCCN)NC(=O)[C@H](Cc2c[nH]c3ccccc23)NC(=O)[C@H](CCCNC(=N)N)NC(=O)[C@@H](CCCCN)N(C)C(=O)[C@H](CCCN)NC(=O)[C@H](CCN)NC1=O
Ans. 0.012

---

Tested Target: LPS-assembly protein LptD (Pseudomonas aeruginosa (strain ATCC 15692 / DSM 22644 / CIP 104116 /JCM 14847 / LMG 12228 / 1C / PRS 101 / PAO1)) (UniProt Q9I5U2)
Sequence (Q9I5U2 whole entry): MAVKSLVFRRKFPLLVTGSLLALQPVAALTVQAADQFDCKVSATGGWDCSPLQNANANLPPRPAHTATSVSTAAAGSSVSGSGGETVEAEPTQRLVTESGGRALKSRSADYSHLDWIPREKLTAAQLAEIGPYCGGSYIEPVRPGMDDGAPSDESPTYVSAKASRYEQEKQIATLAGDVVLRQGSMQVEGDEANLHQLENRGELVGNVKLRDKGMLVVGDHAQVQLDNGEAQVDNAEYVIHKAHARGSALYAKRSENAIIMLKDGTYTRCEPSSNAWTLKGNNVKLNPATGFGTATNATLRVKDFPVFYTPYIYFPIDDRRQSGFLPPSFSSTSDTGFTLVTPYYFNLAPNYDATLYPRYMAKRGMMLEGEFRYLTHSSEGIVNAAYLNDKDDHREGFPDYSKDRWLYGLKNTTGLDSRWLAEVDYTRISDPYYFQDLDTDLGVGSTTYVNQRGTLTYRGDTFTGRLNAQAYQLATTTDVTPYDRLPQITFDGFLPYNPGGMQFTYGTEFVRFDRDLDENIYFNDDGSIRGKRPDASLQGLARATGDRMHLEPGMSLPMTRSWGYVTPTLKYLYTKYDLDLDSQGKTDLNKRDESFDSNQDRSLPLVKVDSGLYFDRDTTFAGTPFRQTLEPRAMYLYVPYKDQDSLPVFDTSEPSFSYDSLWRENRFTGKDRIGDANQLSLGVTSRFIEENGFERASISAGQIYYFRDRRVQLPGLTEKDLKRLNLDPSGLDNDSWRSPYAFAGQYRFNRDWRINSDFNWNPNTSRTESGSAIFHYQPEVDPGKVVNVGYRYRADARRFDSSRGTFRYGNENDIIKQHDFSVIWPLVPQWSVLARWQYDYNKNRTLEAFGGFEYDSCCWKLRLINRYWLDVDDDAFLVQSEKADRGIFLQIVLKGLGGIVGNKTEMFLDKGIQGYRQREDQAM
Assay Summary: Inhibition of LptD in Pseudomonas aeruginosa PAO1 assessed as microbial growth inhibition by microbroth dilution method
Entries and their MIC values follow.
Give just the number in µg/mL; leave the unit off.

Query Smiles	Reading Unit	MIC
CC(C)C[C@@H]1NC(=O)[C@H](Cc2c[nH]c3ccccc23)NC(=O)[C@H]([C@@H](C)O)N(C)C(=O)[C@@H]2CCCN2C(=O)[C@H]2CCCN2C(=O)[C@H](CCCCN)NC(=O)[C@H](C)NC(=O)[C@H](CCN)NC(=O)[C@H](CCCN)NC(=O)[C@H](Cc2c[nH]c3ccccc23)NC(=O)[C@H](CCCNC(=N)N)NC(=O)[C@@H](CCCCN)NC(=O)[C@H](CCCN)NC(=O)[C@H](CCN)NC1=O	µg/mL	0.38

Next compound, MIC to be filled in.
Qu. Please look at this compound and report its MIC: CC(C)C[C@@H]1NC(=O)[C@H](Cc2c[nH]c3ccccc23)NC(=O)[C@H]([C@@H](C)O)NC(=O)[C@@H]2CCCN2C(=O)[C@H]2CCCN2C(=O)[C@H](CCCCN)NC(=O)[C@H](C)NC(=O)[C@H](CCN)NC(=O)[C@H](CCCN)NC(=O)[C@H](Cc2c[nH]c3ccccc23)NC(=O)[C@H](CCCNC(=N)N)NC(=O)[C@@H](CCCCN)NC(=O)[C@H](CCCN)NC(=O)[C@H](CCN)NC1=O
Ans. 0.015

---

Entries and their MIC values follow.
Test system: Pseudomonas aeruginosa
Assay Summary: Inhibition of LptD in Pseudomonas aeruginosa ATCC 27853 assessed as microbial growth inhibition by microbroth dilution method
Give just the number in ng/mL; leave the unit off.

Query Smiles	MIC, ng/mL
CC(C)C[C@@H]1NC(=O)[C@H](Cc2c[nH]c3ccccc23)NC(=O)[C@H]([C@@H](C)O)NC(=O)[C@@H]2CCCN2C(=O)[C@H]2CCCN2C(=O)[C@H](CCCCN)NC(=O)[C@H](C)NC(=O)[C@H](CCN)NC(=O)[C@H](CCCN)NC(=O)[C@H](Cc2c[nH]c3ccccc23)NC(=O)[C@H](CCCNC(=N)N)NC(=O)[C@@H](CCCCN)NC(=O)[C@H](CCCN)NC(=O)[C@H](CCN)NC1=O	8
CC(C)C[C@@H]1NC(=O)[C@H](Cc2c[nH]c3ccccc23)NC(=O)[C@H]([C@@H](C)O)NC(=O)[C@@H]2CCCN2C(=O)[C@H]2CCCN2C(=O)[C@H](CCCCN)NC(=O)[C@H](C)NC(=O)[C@H](CCN)NC(=O)[C@H](CCCN)N(C)C(=O)[C@H](Cc2c[nH]c3ccccc23)NC(=O)[C@H](CCCNC(=N)N)NC(=O)[C@@H](CCCCN)NC(=O)[C@H](CCCN)NC(=O)[C@H](CCN)NC1=O	12000

Next compound, MIC to be filled in.
Qu. Please look at this compound and report its MIC: CC(C)C[C@@H]1NC(=O)[C@H](Cc2c[nH]c3ccccc23)NC(=O)[C@H]([C@@H](C)O)NC(=O)[C@@H]2CCCN2C(=O)[C@H]2CCCN2C(=O)[C@H](CCCCN)NC(=O)[C@H](C)NC(=O)[C@H](CCN)NC(=O)[C@H](CCCN)NC(=O)[C@H](Cc2c[nH]c3ccccc23)NC(=O)[C@H](CCCNC(=N)N)NC(=O)[C@@H](CCCCN)NC(=O)[C@H](CCCN)N(C)C(=O)[C@H](CCN)NC1=O
Ans. 9

---

Entries and their MIC values follow.
Tested Target: LPS-assembly protein LptD (Pseudomonas aeruginosa (strain ATCC 15692 / DSM 22644 / CIP 104116 /JCM 14847 / LMG 12228 / 1C / PRS 101 / PAO1))
Assay Summary: Inhibition of LptD in Pseudomonas aeruginosa PAO1 assessed as microbial growth inhibition by microbroth dilution method
Give just the number in µg/mL; leave the unit off.

For orientation, consider the following solved cases.
Query Smiles	MIC [µg/mL]
CC(C)C[C@@H]1NC(=O)[C@H](Cc2c[nH]c3ccccc23)NC(=O)[C@H]([C@@H](C)O)NC(=O)[C@@H]2CCCN2C(=O)[C@H]2CCCN2C(=O)[C@H](CCCCN)NC(=O)[C@H](C)NC(=O)[C@H](CCN)NC(=O)[C@H](CCCN)NC(=O)[C@H](Cc2c[nH]c3ccccc23)NC(=O)[C@H](CCCNC(=N)N)N(C)C(=O)[C@@H](CCCCN)NC(=O)[C@H](CCCN)NC(=O)[C@H](CCN)NC1=O	0.75
CC(C)C[C@@H]1NC(=O)[C@H](Cc2c[nH]c3ccccc23)NC(=O)[C@H]([C@@H](C)O)NC(=O)[C@@H]2CCCN2C(=O)[C@H]2CCCN2C(=O)[C@H](CCCCN)NC(=O)[C@H](C)NC(=O)[C@H](CCN)NC(=O)[C@H](CCCN)NC(=O)[C@H](Cc2c[nH]c3ccccc23)N(C)C(=O)[C@H](CCCNC(=N)N)NC(=O)[C@@H](CCCCN)NC(=O)[C@H](CCCN)NC(=O)[C@H](CCN)NC1=O	0.13
CC(C)C[C@@H]1NC(=O)[C@H](Cc2c[nH]c3ccccc23)NC(=O)[C@H]([C@@H](C)O)NC(=O)[C@@H]2CCCN2C(=O)[C@H]2CCCN2C(=O)[C@H](CCCCN)NC(=O)[C@H](C)NC(=O)[C@H](CCN)NC(=O)[C@H](CCCN)NC(=O)[C@H](Cc2c[nH]c3ccccc23)NC(=O)[C@H](CCCNC(=N)N)NC(=O)[C@@H](CCCCN)NC(=O)[C@H](CCCN)N(C)C(=O)[C@H](CCN)NC1=O	0.008
CC(C)C[C@@H]1NC(=O)[C@H](Cc2c[nH]c3ccccc23)NC(=O)[C@H]([C@@H](C)O)NC(=O)[C@@H]2CCCN2C(=O)[C@H]2CCCN2C(=O)[C@H](CCCCN)NC(=O)[C@H](C)NC(=O)[C@H](CCN)N(C)C(=O)[C@H](CCCN)NC(=O)[C@H](Cc2c[nH]c3ccccc23)NC(=O)[C@H](CCCNC(=N)N)NC(=O)[C@@H](CCCCN)NC(=O)[C@H](CCCN)NC(=O)[C@H](CCN)NC1=O	12

Qu. Please look at this compound and report its MIC: CC(C)C[C@@H]1NC(=O)[C@H](Cc2c[nH]c3ccccc23)NC(=O)[C@H]([C@@H](C)O)NC(=O)[C@@H]2CCCN2C(=O)[C@H]2CCCN2C(=O)[C@H](CCCCN)NC(=O)[C@H](C)NC(=O)[C@H](CCN)NC(=O)[C@H](CCCN)NC(=O)[C@H](Cc2c[nH]c3ccccc23)NC(=O)[C@H](CCCNC(=N)N)NC(=O)[C@@H](CCCCN)NC(=O)[C@H](CCCN)NC(=O)[C@H](CCN)N(C)C1=O
Ans. 0.009

Qu. Please look at this compound and report its MIC: CC(C)C[C@@H]1NC(=O)[C@H](Cc2c[nH]c3ccccc23)NC(=O)[C@H]([C@@H](C)O)NC(=O)[C@@H]2CCCN2C(=O)[C@H]2CCCN2C(=O)[C@H](CCCCN)NC(=O)[C@H](C)NC(=O)[C@H](CCN)NC(=O)[C@H](CCCN)N(C)C(=O)[C@H](Cc2c[nH]c3ccccc23)NC(=O)[C@H](CCCNC(=N)N)NC(=O)[C@@H](CCCCN)NC(=O)[C@H](CCCN)NC(=O)[C@H](CCN)NC1=O
Ans. 16

Qu. Please look at this compound and report its MIC: CC(C)C[C@@H]1NC(=O)[C@H](Cc2c[nH]c3ccccc23)NC(=O)[C@H]([C@@H](C)O)NC(=O)[C@@H]2CCCN2C(=O)[C@H]2CCCN2C(=O)[C@H](CCCCN)NC(=O)[C@H](C)NC(=O)[C@H](CCN)NC(=O)[C@H](CCCN)NC(=O)[C@H](Cc2c[nH]c3ccccc23)NC(=O)[C@H](CCCNC(=N)N)NC(=O)[C@@H](CCCCN)N(C)C(=O)[C@H](CCCN)NC(=O)[C@H](CCN)NC1=O
Ans. 0.025
